I'd be grateful if you could share measured pIC50 for these entries.
Molecular target: CYP2D6 (Homo sapiens, UniProt P10635)
Sequence (P10635 whole entry): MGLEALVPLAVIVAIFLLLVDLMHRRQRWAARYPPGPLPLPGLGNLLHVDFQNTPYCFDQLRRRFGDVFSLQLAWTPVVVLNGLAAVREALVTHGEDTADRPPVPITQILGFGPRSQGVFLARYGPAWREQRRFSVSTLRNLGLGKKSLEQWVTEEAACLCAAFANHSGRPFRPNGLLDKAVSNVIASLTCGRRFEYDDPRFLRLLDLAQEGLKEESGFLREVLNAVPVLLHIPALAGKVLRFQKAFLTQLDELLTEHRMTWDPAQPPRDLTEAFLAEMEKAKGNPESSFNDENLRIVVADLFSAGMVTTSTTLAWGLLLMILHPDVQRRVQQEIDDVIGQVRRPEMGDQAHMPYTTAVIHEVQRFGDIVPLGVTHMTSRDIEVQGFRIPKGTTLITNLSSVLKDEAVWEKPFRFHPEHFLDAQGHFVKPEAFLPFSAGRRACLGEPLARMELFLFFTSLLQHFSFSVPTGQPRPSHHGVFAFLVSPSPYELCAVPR
Test: Drug-drug interaction evaluation: CYP inhibition in human liver microsomes (cocktail method)
Excerpt: The cocktail method using specific probe substrates for CYP1A2, CYP2C9, CYP2C19, CYP2D6 and CYP3A was used to evaluate the inhibitory effect of the compounds on the activity of human liver microsomal cytochrome P450 isoenzymes (CYP1A2, CYP2C9, CYP2C19, CYP2D6 and CYP3A). Human liver microsomes, probe substrates, positive control inhibitors, and reduced nicotinamide adenine dinucleotide phosphate (NADPH). […]
pIC50: −log10 of the molar value.

**Q:** Request the reported pIC50 associated with Cc1c(NC(=O)CC2(C)CC2)n(C)c2cc(Nc3ccc(F)cc3)ccc12
**A:** 4.82

**Q:** How about Cc1cc(F)cnc1Nc1ccc2c(C)c(NC(=O)CC(C)(C)C)n(C)c2c1 ?
**A:** < 4.30

**Q:** How about Cc1c(NC(=O)CC(C)(C)C)n(C)c2cc(Nc3ncc(F)cc3F)ccc12 ?
**A:** < 4.30

**Q:** How about Cc1c(NC(=O)CC2(C)CC2)n(C)c2cc(Nc3ncc(F)cc3F)ccc12 ?
**A:** < 4.30

**Q:** How about Cc1nc(Nc2ccc3c(C)c(NC(=O)CC(C)(C)C)n(C)c3c2)ccc1F ?
**A:** < 4.30
